- experimental_target: T1, CD66c (CEACAM6) on CD66c-positive A549 non-small-cell lung cancer cells (UniProt P40199 35-320, limits assumed)
- T1 construct: whole, on cells; also called CD66c antigen; NCA-90
- T1 sequence (looked up): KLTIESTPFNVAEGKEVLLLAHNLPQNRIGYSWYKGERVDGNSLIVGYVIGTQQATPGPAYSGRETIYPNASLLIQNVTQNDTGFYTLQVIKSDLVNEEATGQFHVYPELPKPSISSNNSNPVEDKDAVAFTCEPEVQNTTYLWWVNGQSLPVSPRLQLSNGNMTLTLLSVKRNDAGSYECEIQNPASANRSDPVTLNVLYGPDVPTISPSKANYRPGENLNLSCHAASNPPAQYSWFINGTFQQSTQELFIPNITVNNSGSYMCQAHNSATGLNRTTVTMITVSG
- assay: flow cytometry on A549 cells, relative to chimeric antibody
Cut-off 90% on % (% gated × mean): below means Yes, at or above means No.

Worked examples, 2 binders total:
# binder, answer_label
rows = [
    ("recombinant humanized anti-CD66c antibody Protein ID 3010 (Vk7 + VH7) (antibody, human IgG1, V domains shown, also called #45) VH: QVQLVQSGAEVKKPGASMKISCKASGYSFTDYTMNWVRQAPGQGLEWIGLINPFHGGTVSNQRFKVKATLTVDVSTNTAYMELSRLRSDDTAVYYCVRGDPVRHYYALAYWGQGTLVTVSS VL: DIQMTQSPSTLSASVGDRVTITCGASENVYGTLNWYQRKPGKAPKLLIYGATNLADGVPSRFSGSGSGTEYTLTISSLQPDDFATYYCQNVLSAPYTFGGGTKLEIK", "Yes"),
    ("recombinant humanized anti-CD66c antibody Protein ID 3043 (Vk8 + VH6) (antibody, human IgG1, V domains shown, also called hu 3043; #71) VH: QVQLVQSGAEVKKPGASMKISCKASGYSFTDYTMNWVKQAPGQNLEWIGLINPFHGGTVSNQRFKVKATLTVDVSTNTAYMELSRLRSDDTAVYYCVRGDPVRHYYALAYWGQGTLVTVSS VL: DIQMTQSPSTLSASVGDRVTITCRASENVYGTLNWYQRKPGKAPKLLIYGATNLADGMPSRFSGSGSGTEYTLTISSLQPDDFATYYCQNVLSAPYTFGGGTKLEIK", "No"),
]

**Query** Dear colleague, could you confirm whether % (% gated × mean) of recombinant humanized anti-CD66c antibody Protein ID 3004 (Vk7 + VH5) (antibody, human IgG1, V domains shown, also called #41) VH: QVQLVQSGAEVKKPGASVKISCKASGYSFTDYTMNWVRQAHGQNLEWIGLINPFHGGTVSNQRFKVKATLTVDVSTNTAYMELSRLRSDDTAVYYCVRGDPVRHYYALAYWGQGTLVTVSS VL: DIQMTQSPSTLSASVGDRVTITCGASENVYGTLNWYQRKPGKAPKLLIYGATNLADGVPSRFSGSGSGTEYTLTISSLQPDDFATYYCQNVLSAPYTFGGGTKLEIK falls below 90%? Thanks.
**Result** Yes

**Query** # strict comparison: is reported % (% gated × mean) < 90%? input = recombinant humanized anti-CD66c antibody Protein ID 2938 (Vk5 + VH7) (antibody, human IgG1, V domains shown, also called hu 2938) VH: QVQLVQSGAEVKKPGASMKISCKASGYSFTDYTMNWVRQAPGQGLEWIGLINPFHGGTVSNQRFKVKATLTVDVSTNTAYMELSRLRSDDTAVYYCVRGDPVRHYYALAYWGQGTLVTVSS VL: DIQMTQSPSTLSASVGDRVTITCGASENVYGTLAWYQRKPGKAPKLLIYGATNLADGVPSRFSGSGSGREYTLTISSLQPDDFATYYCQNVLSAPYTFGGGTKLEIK
**Result** No

The measured values listed here are drawn from patent US20190263905A1.
